# Assay system: human M1 muscarinic acetylcholine receptors (Homo sapiens)
# Assay explanation: M1 FLIPR assay (PAM, intracellular calcium)
# Assay type: cell-based
# Test parameters: potentiation of EC10-EC30 acetylcholine, values marked a: geometric mean of ≧7 determinations, read-out: M1 PAM Inflection Point (μM) Geometric mean of 2-6 determinations (unless otherwise indicated)
Observable: EC50

Example entries begin here.
>>> result("Cc1cnc(C(=O)NC2CCCC2O)cc1Cc1ccc(-n2cccn2)cc1 (racemic) [Example 34]")
"1.02 µM"
>>> result("Cc1cnc(C(=O)N[C@H]2CCOC[C@@H]2O)cc1[C@@H](F)c1ccc(-n2cccn2)cc1")
"> 9.12 µM"
>>> result("Cc1cnc(C(=O)N[C@H]2CCOC[C@@H]2O)cc1Cc1ccc(-c2cnn(C)c2)cc1F")
"0.125 µM"
>>> result("Cc1cnc(C(=O)NC2CCCC2O)cc1Cc1ccc(-n2cccn2)cc1 (racemic) [Example 49]")
"1.63 µM"
>>> result("Cc1cnc(C(=O)N[C@H]2CCOC[C@@H]2O)cc1Cc1ccc(-c2nccs2)cc1")
"0.101 µM"
>>> result("Cc1cnc(C(=O)NC2CCCCC2(F)F)cc1Cc1ccc(-n2cccn2)cc1 (single isomer, unassigned) [Example 47]")
"0.57 µM"
>>> result("Cc1cnc(C(=O)N[C@H]2CCCC[C@@H]2O)cc1C(F)c1ccc(-n2cccn2)cc1 (single isomer, unassigned) [Example 64]")
"0.033 µM"
>>> result("Cc1cnc(C(=O)NC2CCOCC2)cc1Cc1ccc(-n2cccn2)cc1")
"3.44 µM"
>>> result("Cc1cnc(C(=O)N[C@H]2CCOC[C@@H]2O)cc1Cc1ccc(-c2cnn(C)c2)cc1")
"0.052 µM"
>>> result("Cc1cnc(C(=O)NCc2ccon2)cc1Cc1ccc(-n2cccn2)cc1")
"8.13 µM"

Data request: Provide EC50, tested on human M1 muscarinic acetylcholine receptors (Homo sapiens), for `Cc1cnc(C(=O)N[C@H]2CCCC[C@@H]2O)cc1Cc1ccc(Cl)nc1` .
Data returned: 2.83 µM

Data request: Provide EC50, tested on human M1 muscarinic acetylcholine receptors (Homo sapiens), for `COc1ccc(Cc2cc(C(=O)N[C@H]3CCCC[C@@H]3O)ncc2C)cc1` .
Data returned: 3.48 µM

Data request: Provide EC50, tested on human M1 muscarinic acetylcholine receptors (Homo sapiens), for `O=C(N[C@H]1CCOC[C@@H]1O)c1cc(Cc2ccc(-n3cccn3)cc2)c(Cl)cn1` .
Data returned: 0.187 µM

Data request: Provide EC50, tested on human M1 muscarinic acetylcholine receptors (Homo sapiens), for `Cc1nc(-c2ccc(Cc3cc(C(=O)N[C@H]4CCCC[C@@H]4O)ncc3C)cc2)co1` .
Data returned: 0.363 µM

Data request: Provide EC50, tested on human M1 muscarinic acetylcholine receptors (Homo sapiens), for Cc1nc(-c2ccc(Cc3cc(C(=O)NC4CCOCC4O)ncc3C)cc2)co1 (single isomer, unassigned; (+)) [Example 11] .
Data returned: 0.146 µM

Data request: Provide EC50, tested on human M1 muscarinic acetylcholine receptors (Homo sapiens), for `Cc1cnc(C(=O)N[C@H]2C[C@H](CO)C2)cc1Cc1ccc(-n2cccn2)cc1` .
Data returned: 5.04 µM

----------
# Assay system: human M1 muscarinic acetylcholine receptors (Homo sapiens, UniProt P11229)
# Sequence (P11229 whole entry): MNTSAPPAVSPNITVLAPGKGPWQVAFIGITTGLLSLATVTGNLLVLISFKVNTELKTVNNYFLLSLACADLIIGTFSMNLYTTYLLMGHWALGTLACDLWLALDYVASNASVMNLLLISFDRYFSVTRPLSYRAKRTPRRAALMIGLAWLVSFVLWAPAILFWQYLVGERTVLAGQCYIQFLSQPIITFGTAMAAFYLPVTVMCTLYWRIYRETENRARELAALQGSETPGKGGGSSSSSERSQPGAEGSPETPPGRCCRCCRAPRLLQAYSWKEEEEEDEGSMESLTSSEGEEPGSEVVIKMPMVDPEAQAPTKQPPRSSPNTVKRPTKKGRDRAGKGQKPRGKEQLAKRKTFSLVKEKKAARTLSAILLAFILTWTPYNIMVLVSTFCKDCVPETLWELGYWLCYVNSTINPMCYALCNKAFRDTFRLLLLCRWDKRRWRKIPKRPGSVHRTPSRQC
# Assay explanation: M1 FLIPR assay (PAM, intracellular calcium)
# Assay type: cell-based
# Test parameters: potentiation of EC10-EC30 acetylcholine, values marked a: geometric mean of ≧7 determinations, read-out: M1 PAM Inflection Point (μM) Geometric mean of 2-6 determinations (unless otherwise indicated)
Observable: EC50 (µM)
Report the value in µM with no unit label.

>>> measured_number("Cc1cnc(C(=O)N[C@H]2CC[C@@H](O)CC2)cc1Cc1ccc(-n2cccn2)cc1")
3.82
>>> measured_number("Cc1cnc(C(=O)N[C@H]2CCOC[C@@H]2O)cc1Cc1ccc(-c2cn(C)nc2C)cc1")
0.116
>>> measured_number("Cc1cnc(C(=O)NCC2CCOCC2)cc1Cc1ccc(-n2cccn2)cc1")
4.6
>>> measured_number("O=C(N[C@H]1CCOC[C@@H]1O)c1cc(Cc2ccc(-n3cccn3)cc2)c(OC(F)F)cn1")
0.129
>>> measured_number("COc1cnc(C(=O)N[C@H]2CCCC[C@@H]2O)cc1Cc1ccc(-c2coc(C)n2)cc1")
0.142

Data request: Specify measured EC50 for `Cc1c[n+]([O-])c(C(=O)N[C@H]2CCOC[C@@H]2O)cc1Cc1ccc(-n2cccn2)cc1` .
Data returned: 0.271

Data request: Specify measured EC50 for Cc1cnc(C(=O)N[C@H]2CCOC[C@@H]2O)cc1C(F)c1ccc(-c2cscn2)cc1 (single isomer, unassigned; diastereomer 1) .
Data returned: 1.83

Data request: Specify measured EC50 for `Cc1noc(CNC(=O)c2cc(Cc3ccc(-n4cccn4)cc3)c(C)cn2)n1` .
Data returned: 8.63
